target: NS5B from the BK strain (genotype 1b) (Hepatitis C virus genotype 1b); construct: NS5B from the BK strain (genotype 1b) is expressed in E. coli as a protein in which the 21 C-terminal amino acids are replaced; made in house; host or cells: E. coli; experiment: Hepatitis C polymerase inhibition, NS5B BK strain, 33P-GTP filter assay; assay type: biochemical; conditions: Table 1A; NS5B BK strain; read-out: HCV pol BK IC50
ASSAY ENDPOINT: IC50 (µM)
Answer format: numeric, µM implied, no suffix.

- COMPOUND: "CCC1(CC(=O)O)OCCc2c1[nH]c1c(F)cc(F)c(Br)c21 (stereo not drawn)"
  REPORTED MEASUREMENT: 4.2
- COMPOUND: "CCCCC1(CC(=O)O)OCCc2c1[nH]c1c(Br)ccc(Br)c21 (stereo not drawn)"
  REPORTED MEASUREMENT: 0.28
- COMPOUND: "CCCCC1(CC(=O)O)OCCc2c1[nH]c1c(C)ccc(F)c21 (stereo not drawn)"
  REPORTED MEASUREMENT: 6

Value lookup for IC50; key = CCCC1(CC(=O)O)OCCc2c1n(Cc1ccccc1)c1c(Cl)ccc(Cl)c21 (stereo not drawn) 13

For CC(C)C1(CC(=O)O)OCCc2c1[nH]c1c(Cl)ccc(C(F)(F)F)c21 (stereo not drawn) then? 9.5

* * *

target: NS5B from the BK strain (genotype 1b) (Hepatitis C virus genotype 1b); construct: NS5B from the BK strain (genotype 1b) is expressed in E. coli as a protein in which the 21 C-terminal amino acids are replaced; made in house; host or cells: E. coli; experiment: Hepatitis C polymerase inhibition, NS5B BK strain, 33P-GTP filter assay; format: biochemical; settings: Table 1B; NS5B BK strain; read-out: BK IC50
ASSAY ENDPOINT: pIC50
The read-out pIC50 is expressed as -log10 of concentration in moles per litre.

Solved cases (4 shown):
- MOLECULE: "CCCC1(CC(=O)O)OCCc2c1[nH]c1c(C)ccc(C(F)(F)F)c21 (stereo not drawn) [Example 272]"
  pIC50: 6.30
- MOLECULE: "N#Cc1ccc(F)c2[nH]c3c(c12)CCOC3(CC(=O)O)C1CCC1 (stereo not drawn) [Example 307]"
  pIC50: 5.24
- MOLECULE: "Cc1ccc(C#N)c2c3c([nH]c12)[C@@](CC(=O)O)(C1CCC1)OCC3 [Example 285]"
  pIC50: 6.40
- MOLECULE: "COCCC1(CC(=O)O)OCCc2c1[nH]c1c(Cl)ccc(C(F)(F)F)c21 (stereo not drawn) [Example 265]"
  pIC50: 4.70

Value lookup for pIC50; key = CCCCC1(C(=O)O)OCCc2c1[nH]c1c(F)ccc(C#N)c21 (stereo not drawn) [Example 345] 5.47

For CC[C@@H](C)[C@@]1(C(=O)O)OCCc2c1[nH]c1c(C)ccc(C#N)c21 (racemic) [Example 336] then? 5.33

For CC[C@H](C)[C@@]1(CC(=O)O)OCCc2c1[nH]c1c(C)cc(F)c(C#N)c21 [Example 319] then? 7.22

For Cc1ccc(C#N)c2c3c([nH]c12)C(CCC(F)(F)F)(CC(=O)O)OCC3 (stereo not drawn) [Example 280] then? 6.10

For CCCOc1cc(C#N)c2c3c([nH]c2c1C)[C@](CCC)(CC(=O)O)OCC3 [Example 361] then? 5.74

For CCOCC1(CC(=O)O)OCCc2c1[nH]c1c(Cl)ccc(C(F)(F)F)c21 (stereo not drawn) [Example 266] then? 4.85

For CCC1(CC(=O)O)OCCc2c1[nH]c1c(Cl)ccc(Cl)c21 (stereo not drawn) [Example 243] then? 5.20

For CCCC1(CC(=O)O)OCCc2c1[nH]c1c(C)c(OCCC(C)(C)C)cc(C#N)c21 (stereo not drawn) [Example 366] then? 5.77

For CCCC1(CC(=O)O)OCCc2c1[nH]c1c(C)c(OC(C)C)cc(C#N)c21 (stereo not drawn) [Example 364] then? 6.32

For O=C(O)CC1(C2CCC2)OCCc2c1[nH]c1ccc(Cl)c(Cl)c21 (stereo not drawn) [Example 235] then? 5.28

For CCC(C)C1(CC(=O)O)OCCc2c1[nH]c1c(C(N)=O)ccc(C(F)(F)F)c21 (stereo not drawn) [Example 278] then? 4.82

For CCCC1(CC(=O)O)OCCc2c1[nH]c1c(C)c(C(=O)O)cc(C#N)c21 (stereo not drawn) [Example 353] then? 5.70

* * *

target: NS5B from the BK strain (genotype 1b) (Hepatitis C virus genotype 1b, UniProt P26663); construct: NS5B from the BK strain (genotype 1b) is expressed in E. coli as a protein in which the 21 C-terminal amino acids are replaced; made in house; host or cells: E. coli; assay: Hepatitis C polymerase inhibition, NS5B BK strain, 33P-GTP filter assay; type: biochemical; settings: Table 1A; 20 μM compound; read-out: HCV pol % inh at 20 μM
Sequence (P26663 2420-2989): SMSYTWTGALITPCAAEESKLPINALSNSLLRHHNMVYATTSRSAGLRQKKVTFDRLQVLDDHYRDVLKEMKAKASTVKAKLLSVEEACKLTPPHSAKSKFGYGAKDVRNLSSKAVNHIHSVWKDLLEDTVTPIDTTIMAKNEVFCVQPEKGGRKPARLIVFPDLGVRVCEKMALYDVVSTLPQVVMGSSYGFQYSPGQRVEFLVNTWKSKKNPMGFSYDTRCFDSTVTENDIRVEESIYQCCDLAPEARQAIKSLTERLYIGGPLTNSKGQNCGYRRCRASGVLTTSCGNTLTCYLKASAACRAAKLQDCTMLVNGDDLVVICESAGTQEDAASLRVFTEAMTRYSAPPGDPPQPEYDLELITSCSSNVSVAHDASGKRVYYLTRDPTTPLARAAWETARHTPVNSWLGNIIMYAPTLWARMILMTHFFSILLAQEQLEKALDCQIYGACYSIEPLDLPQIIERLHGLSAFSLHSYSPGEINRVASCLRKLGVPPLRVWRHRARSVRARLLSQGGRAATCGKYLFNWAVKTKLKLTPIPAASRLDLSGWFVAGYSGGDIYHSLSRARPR
inhibition at 20 µM: recorded values

- COMPOUND: "Cc1cc(F)c2[nH]c3c(c2c1C#N)CCOC3(CC(=O)O)C(C)C (stereo not drawn) [Example 222]"
  inhibition at 20 µM: "45%"
- COMPOUND: "CCCC1(CC(=O)O)OCCc2c1[nH]c1cccc(-c3cccc(Cl)c3)c21 (stereo not drawn) [Example 49]"
  inhibition at 20 µM: "< 5%"
- COMPOUND: "CCCC1(CC(=O)O)OCCc2c1[nH]c1c(C)ccc(Br)c21 (stereo not drawn) [Example 153]"
  inhibition at 20 µM: "93%"
- COMPOUND: "CCCC1(CC(=O)O)OCCc2c1[nH]c1c(F)cc(C)c(Br)c21 (stereo not drawn) [Example 165]"
  inhibition at 20 µM: "89%"
- COMPOUND: "Cc1cc(F)c(C#N)c2c3c([nH]c12)C(CC(=O)O)(c1ccc(C(=O)O)cc1)OCC3 (stereo not drawn) [Example 209]"
  inhibition at 20 µM: "63%"

Checklist item: inhibition at 20 µM tested on NS5B from the BK strain (genotype 1b) (Hepatitis C virus genotype 1b, UniProt P26663), entry O=C(O)CC1(c2ccccc2)OCCc2c1[nH]c1c(Cl)ccc(C(F)(F)F)c21 (stereo not drawn) [Example 135] , value? 55%

For O=C(O)CC1(c2ccccc2F)OCCc2c1[nH]c1cccc(Cl)c21 (stereo not drawn) [Example 20] then? 21%

For Cc1cc(Cl)c2[nH]c3c(c2c1Br)CCOC3(CC(=O)O)C(C)C (stereo not drawn) [Example 176] then? 49%

For O=C(O)CC1(c2ccccc2)OCCc2c1[nH]c1c(Cl)cccc21 (stereo not drawn) [Example 78] then? 26%

* * *

pIC50: recorded values
molecular target: BB7 (RNA-dependent RNA polymerase hepatitis C virus protein sequence derived from HCV replicon) (Hepatitis C virus genotype 1b)
Sequence (Q9WMX2 2420-3010): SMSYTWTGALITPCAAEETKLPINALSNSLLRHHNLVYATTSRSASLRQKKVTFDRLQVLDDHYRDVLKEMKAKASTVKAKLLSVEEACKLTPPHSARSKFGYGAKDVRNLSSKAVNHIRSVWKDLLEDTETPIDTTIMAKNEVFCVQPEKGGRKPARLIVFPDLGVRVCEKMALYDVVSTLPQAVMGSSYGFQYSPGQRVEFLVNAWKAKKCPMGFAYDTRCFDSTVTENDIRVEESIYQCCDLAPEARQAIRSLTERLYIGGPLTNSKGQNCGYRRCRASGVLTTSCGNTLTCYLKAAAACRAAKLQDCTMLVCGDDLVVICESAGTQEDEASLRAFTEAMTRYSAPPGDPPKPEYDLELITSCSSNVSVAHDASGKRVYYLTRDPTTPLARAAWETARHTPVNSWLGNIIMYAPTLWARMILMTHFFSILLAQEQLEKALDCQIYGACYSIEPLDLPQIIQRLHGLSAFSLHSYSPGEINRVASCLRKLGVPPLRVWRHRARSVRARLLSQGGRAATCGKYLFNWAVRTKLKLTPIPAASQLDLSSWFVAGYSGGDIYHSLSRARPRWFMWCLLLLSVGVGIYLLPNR
The read-out pIC50 is expressed as -log10 of concentration in moles per litre.

Solved cases (7 shown):
- MOLECULE: "C=CCCC1(CC(=O)O)OCCc2c1[nH]c1c(Cl)ccc(Cl)c21 (centres unmarked) [Example 251]"
  pIC50: 5.46
- MOLECULE: "N#CCCCC1(CC(=O)O)OCCc2c1[nH]c1c(Cl)ccc(Cl)c21 (centres unmarked) [Example 244]"
  pIC50: 5.74
- MOLECULE: "CC[C@H](C)[C@@]1(CC(=O)O)OCCc2c1[nH]c1c(C)ccc(C#N)c21 [Example 292]"
  pIC50: 6.59
- MOLECULE: "Cc1ccc(C#N)c2c3c([nH]c12)C(CC(=O)O)(CC1CCCC1)OCC3 (centres unmarked) [Example 288]"
  pIC50: 4.74
- MOLECULE: "CCCCC1(CC(=O)O)OCCc2c1[nH]c1c(CC)ccc(C#N)c21 (centres unmarked) [Example 296]"
  pIC50: 5.20
- MOLECULE: "CCCC1(C(=O)O)OCCc2c1[nH]c1c(Cl)ccc(C(F)(F)F)c21 (centres unmarked) [Example 331]"
  pIC50: 5.60
- MOLECULE: "CCCC1(CC(=O)O)OCCc2c1[nH]c1c(C)ccc([N+](=O)[O-])c21 (centres unmarked) [Example 298]"
  pIC50: 6.30

Value lookup for pIC50; key = CC[C@H](C)C1(CC(=O)O)OCCc2c1[nH]c1c(C)cc(F)c(C#N)c21 (mixture of isomers) [Example 318] 6.60

* * *

target: BB7 (RNA-dependent RNA polymerase hepatitis C virus protein sequence derived from HCV replicon) (Hepatitis C virus genotype 1b); assay: Hepatitis C polymerase inhibition, BB7 sequence; type: biochemical; details: Table 1B
ASSAY ENDPOINT: IC50

- COMPOUND: "CCSCC1(CC(=O)O)OCCc2c1[nH]c1c(Cl)ccc(Cl)c21 (centres unmarked) [Example 250]"
  IC50: "3.9 µM"
- COMPOUND: "CCCC1(CC(=O)O)OCCc2c1[nH]c1c(C)c(OC)cc(C#N)c21 (centres unmarked) [Example 363]"
  IC50: "0.13 µM"
- COMPOUND: "CC[C@H](C)[C@]1(CC(=O)O)OCCc2c1[nH]c1c(F)ccc(C#N)c21 [Example 316]"
  IC50: "> 30 µM"

Value lookup for IC50; key = CCCC1(C(=O)O)OCCc2c1[nH]c1c(Cl)ccc(C#N)c21 (centres unmarked) [Example 341] 3.6 µM

For CCCOc1cc(C#N)c2c3c([nH]c2c1C)[C@@](CCC)(CC(=O)O)OCC3 [Example 360] then? 0.04 µM
